meta.source: PubChem BioAssay (NCI)

system: HT29 colon; assay: NCI-60 one-dose screen, 48 h (100 = growth as untreated, 0 = no growth, -100 = all killed); settings: 10 µM unless noted
The panel holds about 83,000 compounds, 20% with a hit somewhere; the sample as a whole holds those more often. Activity calls are given as the source filed them. How the source made its calls: active means growth percent below 10; inactive means the rest.

[
  {
    "molecule": "Cc1[nH]c(-c2nc3ccccc3[nH]2)c(C)c1C(=O)NNc1ccc(Cl)cc1",
    "growth": "104% (inactive)"
  },
  {
    "molecule": "CCCCNCC(=O)Nc1ccc(C(=O)OCC)cc1",
    "growth": "86.7% (inactive)"
  },
  {
    "molecule": "Nc1ccc(-c2cc3c(Nc4ccc(OCc5cccc(F)c5)c(Cl)c4)ncnc3s2)cc1",
    "growth": "84.5% (inactive)"
  },
  {
    "molecule": "CCOC(=O)c1ccc(-c2ccc3cc(OC)ccc3c2)nc1C",
    "growth": "80.2% (inactive)"
  },
  {
    "molecule": "O=S(=O)(Nc1ccsc1-c1nc(-c2ccccc2)no1)c1cc(Cl)cc(Cl)c1",
    "growth": "98.5% (inactive)"
  },
  {
    "molecule": "CCOc1ccc(S(=O)(=O)c2ccc(C)cc2)c2c1no[n+]2[O-]",
    "growth": "52.8% (inactive)"
  },
  {
    "molecule": "NC(N)=N/N=C(/c1ccccc1)c1ccc(N)cc1",
    "growth": "132% (inactive)"
  },
  {
    "molecule": "CC1=NN(c2cccc(Cl)c2)C(=O)/C1=C\\c1cn(CC(O)CN2CCCCC2)c2ccccc12 (stereo not drawn)",
    "growth": "-57.3% (active)"
  },
  {
    "molecule": "O=C1c2cccc3c(-c4ccc(-c5nc6c7ccccc7c7ccccc7c6[nH]5)cc4)ccc(c23)C(=O)N1CCN1CCNCC1",
    "growth": "5.47% (active)"
  },
  {
    "molecule": "C/C(Cc1ccc(Cl)cc1)=C(/c1ccc(Cl)cc1)c1ccc(OCCN(C)C)cc1",
    "growth": "8.12% (active)"
  },
  {
    "molecule": "CCc1c(C(=O)N[C@@H]2c3cc(Cl)ccc3CC[C@@H]2O)[nH]c(C)c1C(C)=O",
    "growth": "66.9% (inactive)"
  },
  {
    "molecule": "COc1cc(C(=O)Nc2cc(O)c(CC=C(C)C)c(O)c2)cc2c1O[C@]1(C)CC[C@@H](O)C(C)(C)[C@H]1C2",
    "growth": "1.4% (active)"
  },
  {
    "molecule": "C=CC(=O)Nc1cccc(C)c1Nc1cc(-c2cccnc2Cc2c(C)c(OC)cc(OC)c2C)ncn1",
    "growth": "5.04% (active)"
  },
  {
    "molecule": "N=c1ccn2c(n1)OC1C(O)C(CO)OC12 (stereo not drawn)",
    "growth": "34.4% (inactive)"
  },
  {
    "molecule": "CCN(CCO)CC(=O)c1cc(Cl)cc(Cl)c1Cl",
    "growth": "81.8% (inactive)"
  },
  {
    "molecule": "O=[N+]([O-])c1ccc(-c2cc3c(Nc4ccc(Cl)c(C(F)(F)F)c4)ncnc3s2)cc1",
    "growth": "3.89% (active)"
  },
  {
    "molecule": "CCNCCNc1cc(-c2ccc(Cl)cc2)c(C#N)c2nc3ccccc3n12",
    "growth": "-32.2% (active)"
  },
  {
    "molecule": "CN(CCCCCCCCNc1ccnc2ccccc12)Cc1ccc(-c2ccc(-c3ccc(C#N)cc3)s2)cc1",
    "growth": "-55.1% (active)"
  },
  {
    "molecule": "Clc1ccc(/C=N\\N=c2\\scc(-c3ccc(Cl)cc3)n2/N=C/c2ccc(Cl)cc2)cc1",
    "growth": "76.5% (inactive)"
  },
  {
    "molecule": "N#C/C(=C\\c1ccc2c(c1)OCO2)n1nnc2ccccc21",
    "growth": "11.5% (inactive)"
  },
  {
    "molecule": "COc1ccc(OC)c(/C=C2\\COc3ccc(O)cc3C2=O)c1",
    "growth": "45.9% (inactive)"
  },
  {
    "molecule": "Cn1ccc(Cc2cnc(N)s2)n1",
    "growth": "97.5% (inactive)"
  },
  {
    "molecule": "CCOc1cc(N)ccc1C(=O)NCCCN(CC)CC",
    "growth": "102% (inactive)"
  },
  {
    "molecule": "C=C1C(=O)O[C@H]2[C@H]1CC/C(COC(=O)/C=C\\C(=O)NCc1ccc(Cn3c(=O)sn(-c4ccc(OC)cc4)c3=O)cc1)=C\\CC[C@@]1(C)O[C@@H]21",
    "growth": "-22.9% (active)"
  },
  {
    "molecule": "Cc1c(C)c2c(c(C)c1NC(=O)/C=C\\C(=O)O)CCC(C)(CCCC(C)CCCC(C)CCCC(C)C)O2 (stereo not drawn)",
    "growth": "20.7% (inactive)"
  },
  {
    "molecule": "C=C(C)[C@@H]1CC[C@]2(CN)CC[C@]3(C)[C@H](CC[C@@H]4[C@@]5(C)CCC(N)[C@@](C)(CO)[C@@H]5CC[C@]43C)[C@@H]12 (stereo partly drawn)",
    "growth": "-60.6% (active)"
  },
  {
    "molecule": "CCCCNC(=O)c1cc(NCc2cc(O)ccc2O)ccc1O",
    "growth": "80.8% (inactive)"
  },
  {
    "molecule": "CSc1nc2sc3cc(Cl)ccc3n2c(=N)c1C#N",
    "growth": "33% (inactive)"
  },
  {
    "molecule": "CCn1c(Sc2nnc(Nc3ccccc3)s2)nc2c1c(=O)n(C)c(=O)n2C",
    "growth": "137% (inactive)"
  },
  {
    "molecule": "O=[N+]([O-])c1ccc(-c2cc3c(Nc4ccc(Sc5nc6ccccc6s5)c(Cl)c4)ncnc3s2)cc1",
    "growth": "13.9% (inactive)"
  },
  {
    "molecule": "N=C(N)c1ccc(-c2ccc(-c3ccc(Cl)c(Cl)c3)o2)cc1",
    "growth": "-20.3% (active)"
  },
  {
    "molecule": "CC1(C)C(=O)/C(=C\\c2cccnc2)C[C@]2(C)[C@H]3CC=C4[C@@H]5C[C@@](C)(C(=O)O)CC[C@]5(C)CC[C@@]4(C)[C@]3(C)CC[C@@H]12",
    "growth": "91.5% (inactive)"
  },
  {
    "molecule": "Cc1ccccc1NC(=O)CN(C)C",
    "growth": "90.9% (inactive)"
  },
  {
    "molecule": "C=C1C(=O)O[C@H]2[C@H]1CC/C(Cn1cc(CNCCc3c[nH]c4ccc(Cl)cc34)nn1)=C\\CC[C@@]1(C)O[C@@H]21",
    "growth": "21.2% (inactive)"
  },
  {
    "molecule": "CC(C)n1nc(C#Cc2cccc3cc(-c4cccc(C(F)(F)F)c4)ncc23)c2c(N)ncnc21",
    "growth": "29.7% (inactive)"
  },
  {
    "molecule": "CNC(=O)c1cc(Oc2ccc3nc(Nc4cc(Cl)cc(Cl)c4)ccc3c2)ccn1",
    "growth": "15.3% (inactive)"
  },
  {
    "molecule": "CN1C(=O)CCC(N2C(=O)c3cccc(NCCOCCOCCNC(=O)c4cc5c(o4)C(=O)c4ccccc4C5=O)c3C2=O)C1=O (stereo not drawn)",
    "growth": "0.328% (active)"
  },
  {
    "molecule": "Cc1ccc(NSc2ccccc2[N+](=O)[O-])cc1",
    "growth": "5.05% (active)"
  }
]
